tested on: KM12C; test: Antiproliferative activity against human KM12-C cells harbouring wild-type KRAS and RON delta 160 assessed as cell growth inhibition measured after 72 hrs by MTS assay; assay type: functional
Here the recorded GI50 is given for each entry.

CCOc1ccn(-c2cccc(F)c2)c(=O)c1C(=O)Nc1ccc(Oc2ccnc3cc(-c4ccc(CN5CCOCC5)cn4)sc23)c(F)c1: 42 nM

Prompt line: Fill in: GI50 of `CCOc1ccn(-c2ccc(F)cc2)c(=O)c1C(=O)Nc1ccc(Oc2ccnc3cc(-c4ccc(CN5CCOCC5)cn4)sc23)cc1Cl` is ___
Response line: 6 nM

Prompt line: Fill in: GI50 of `CCOc1ccn(-c2ccc(F)cc2)c(=O)c1C(=O)Nc1ccc(Oc2ccnc3cc(-c4ccccn4)sc23)c(F)c1` is ___
Response line: 22 nM

Prompt line: Fill in: GI50 of `CCOc1ccn(-c2ccc(F)cc2)c(=O)c1C(=O)Nc1ccc(Oc2ccnc3cc(-c4ccc(CN5CCC(F)(F)C5)cn4)sc23)c(F)c1` is ___
Response line: 9 nM

Prompt line: Fill in: GI50 of `CCOc1ccn(-c2ccc(F)cc2)c(=O)c1C(=O)Nc1ccc(Oc2ccnc3cc(-c4ccc(CN5CCC(OC)CC5)cn4)sc23)c(F)c1` is ___
Response line: 19 nM

Prompt line: Fill in: GI50 of `CCOc1ccn(-c2ccc(F)cc2)c(=O)c1C(=O)Nc1ccc(Oc2ccnc3cc(-c4ccc(CCN5CCOCC5)cn4)sc23)c(F)c1` is ___
Response line: 26 nM

Prompt line: Fill in: GI50 of `CC(C)COc1ccn(-c2ccc(F)cc2)c(=O)c1C(=O)Nc1ccc(Oc2ccnc3cc(-c4ccc(CN5CCOCC5)cn4)sc23)c(F)c1` is ___
Response line: 3 nM

Prompt line: Fill in: GI50 of `CCOc1ccn(-c2ccc(F)cc2)c(=O)c1C(=O)Nc1ccc(Oc2ccnc3cc(-c4ccc(CN5CCN(C)CC5)cn4)sc23)c(F)c1` is ___
Response line: 9 nM

====

tested on: HT-29; test: Antiproliferative activity against human HT-29 cells harbouring wild-type KRAS and RON delta 160 assessed as cell growth inhibition measured after 72 hrs by MTS assay; assay type: functional
observation.type: GI50 (nM)
Please respond with the number in nM and leave the unit unwritten.

CCOc1ccn(-c2ccc(F)cc2)c(=O)c1C(=O)Nc1ccc(Oc2ccnc3cc(-c4ccccn4)sc23)c(F)c1: 3140
CCOc1ccn(-c2ccc(F)cc2)c(=O)c1C(=O)Nc1ccc(Oc2ccnc3cc(-c4ccc(CN5CC(F)(F)C5)cn4)sc23)c(F)c1: 970
CCOc1ccn(-c2ccc(F)cc2)c(=O)c1C(=O)Nc1ccc(Oc2ccnc3cc(-c4ccc(CN5CC(OC)C5)cn4)sc23)c(F)c1: 1640

Prompt line: Fill in: GI50 of `C[C@@H](Oc1cc(-c2cnn(C3CCNCC3)c2)cnc1N)c1c(Cl)ccc(F)c1Cl` is ___
Response line: 4000

Prompt line: Fill in: GI50 of `CCOc1ccn(-c2ccc(F)cc2)c(=O)c1C(=O)Nc1ccc(Oc2ccnc3cc(-c4ccc(CN5CCC(OC)CC5)cn4)sc23)c(F)c1` is ___
Response line: 1770

Prompt line: Fill in: GI50 of CCOc1ccn(-c2ccc(F)cc2)c(=O)c1C(=O)Nc1ccc(Oc2ccnc3cc(-c4ccc(CN5CCC(OC)C5)cn4)sc23)c(F)c1 (stereo unspecified) is ___
Response line: 7710

====

Here the recorded GI50 is given for each entry.
system: KM12C; assay: Antiproliferative activity against human KM12-C cells harbouring wild-type KRAS and RON delta 160 assessed as cell growth inhibition measured after 72 hrs by MTS assay; type: functional
Please respond with the number in nM and leave the unit unwritten.

CCOc1ccn(-c2ccc(F)cc2)c(=O)c1C(=O)Nc1ccc(Oc2ccnc3cc(-c4ccc(CN5CCC(F)CC5)cn4)sc23)c(F)c1: 17
CCOc1ccn(-c2ccc(F)cc2)c(=O)c1C(=O)Nc1ccc(Oc2ccnc3cc(-c4ccc(OCCN5CCOCC5)cn4)sc23)c(F)c1: 38
CCOc1ccn(-c2ccc(Cl)cc2)c(=O)c1C(=O)Nc1ccc(Oc2ccnc3cc(-c4ccc(CN5CCOCC5)cn4)sc23)c(F)c1: 25
CCOc1ccn(-c2ccc(F)cc2)c(=O)c1C(=O)Nc1ccc(Oc2ccnc3cc(-c4ccc(CN5CC(OC)C5)cn4)sc23)c(F)c1: 27
CCCOc1ccn(-c2ccc(F)cc2)c(=O)c1C(=O)Nc1ccc(Oc2ccnc3cc(-c4ccc(CN5CCOCC5)cn4)sc23)c(F)c1: 10
CCOc1ccn(-c2ccc(F)cc2)c(=O)c1C(=O)Nc1ccc(Oc2ccnc3cc(-c4cn(C)cn4)sc23)c(F)c1: 27
CCOc1ccn(-c2ccc(F)cc2)c(=O)c1C(=O)Nc1ccc(Oc2ccnc3cc(-c4ccc(CN5CC(F)C5)cn4)sc23)c(F)c1: 16
CCCCOc1ccn(-c2ccc(F)cc2)c(=O)c1C(=O)Nc1ccc(Oc2ccnc3cc(-c4ccc(CN5CCOCC5)cn4)sc23)c(F)c1: 15

For the next question, use this compound.
Prompt line: Fill in: GI50 of `CCOc1ccn(-c2ccc(F)cc2)c(=O)c1C(=O)Nc1ccc(Oc2ccnc3cc(-c4ccc(CN5CC(F)(F)C5)cn4)sc23)c(F)c1` is ___
Response line: 24

====

Here the recorded GI50 is given for each entry.
system: HT-29; assay: Antiproliferative activity against human HT-29 cells harbouring wild-type KRAS and RON delta 160 assessed as cell growth inhibition measured after 72 hrs by MTS assay; type: functional
Please respond with the number in nM and leave the unit unwritten.

Recorded results for 3 compounds are shown here.
CCOc1ccn(-c2ccc(F)cc2)c(=O)c1C(=O)Nc1ccc(Oc2ccnc3cc(-c4ccc(CN5CCC(F)CC5)cn4)sc23)c(F)c1: 2440
CCOc1ccn(-c2ccc(F)cc2)c(=O)c1C(=O)Nc1ccc(Oc2ccnc3cc(-c4ccc(CN5CCOCC5)cn4)sc23)c(Cl)c1: 660
O=C(Nc1ccc(Oc2ccnc3cc(-c4ccc(CN5CCOCC5)cn4)sc23)c(F)c1)c1c(OCCC2CC2)ccn(-c2ccc(F)cc2)c1=O: 860

Prompt line: Fill in: GI50 of `CCCCOc1ccn(-c2ccc(F)cc2)c(=O)c1C(=O)Nc1ccc(Oc2ccnc3cc(-c4ccc(CN5CCOCC5)cn4)sc23)c(F)c1` is ___
Response line: 840

Prompt line: Fill in: GI50 of `CCOc1ccn(-c2ccc(F)cc2)c(=O)c1C(=O)Nc1cc(F)c(Oc2ccnc3cc(-c4ccc(CN5CCOCC5)cn4)sc23)c(F)c1` is ___
Response line: 642

Prompt line: Fill in: GI50 of `CCOc1ccn(-c2cccc(F)c2)c(=O)c1C(=O)Nc1ccc(Oc2ccnc3cc(-c4ccc(CN5CCOCC5)cn4)sc23)c(F)c1` is ___
Response line: 395

Prompt line: Fill in: GI50 of `CCCOc1ccn(-c2ccc(F)cc2)c(=O)c1C(=O)Nc1ccc(Oc2ccnc3cc(-c4ccc(CN5CCOCC5)cn4)sc23)c(F)c1` is ___
Response line: 500

Prompt line: Fill in: GI50 of `CCOc1ccn(-c2ccc(F)cc2)c(=O)c1C(=O)Nc1ccc(Oc2ccnc3cc(-c4cn(C)cn4)sc23)c(F)c1` is ___
Response line: 570

Prompt line: Fill in: GI50 of CCOc1ccn(-c2ccc(F)cc2)c(=O)c1C(=O)Nc1ccc(Oc2ccnc3cc(-c4ccc(CN5CCC(F)C5)cn4)sc23)c(F)c1 (stereo not given) is ___
Response line: 650

Prompt line: Fill in: GI50 of `CCOc1ccn(-c2ccc(F)cc2)c(=O)c1C(=O)Nc1ccc(Oc2ccnc3cc(-c4ccc(CNCCOC)cn4)sc23)c(F)c1` is ___
Response line: 590
